Entry source: paper PMC12797170

Known fraction unbound at 4 h, 100 µM of a selection of compounds
Protocol Description: Plasma protein binding, equilibrium dialysis, human plasma
Type: in vitro ADME
Experimental Conditions: undiluted plasma, human plasma protein binding, read-out: PPB (hu) (converted)

Compound: O=P(O)(O)CP(=O)(O)OC[C@H]1O[C@@H](n2cnc3c(-c4cccc5ccccc45)ncnc32)[C@H](O)[C@@H]1O [31A.6]
Inequality Symbol: =
fraction unbound at 4 h, 100 µM: 0.093

Compound: O=P(O)(O)CP(=O)(O)OC[C@H]1O[C@@H](n2ccc3c(-c4ccc5cc(OCc6ccccc6)ccc5c4)nc(Cl)nc32)[C@H](O)[C@@H]1O [7B.31]
Inequality Symbol: ≤
fraction unbound at 4 h, 100 µM: 0.01

Compound: N#Cc1ccc(-c2nc(Cl)nc3c2ccn3[C@@H]2O[C@H](COP(=O)(O)CP(=O)(O)O)[C@@H](O)[C@H]2O)c2ccccc12 [7B.34]
Inequality Symbol: ≤
fraction unbound at 4 h, 100 µM: 0.01

Compound: O=P(O)(O)CP(=O)(O)OC[C@H]1O[C@@H](n2ccc3c(-c4cccc5ccncc45)ncnc32)[C@H](O)[C@@H]1O [4A.18]
Inequality Symbol: =
fraction unbound at 4 h, 100 µM: 0.195

Compound: O=P(O)(O)CP(=O)(O)OC[C@H]1O[C@@H](n2ccc3c(-c4ccc5cc(Cl)ccc5c4)nc(Cl)nc32)[C@H](O)[C@@H]1O [7B.27]
Inequality Symbol: ≤
fraction unbound at 4 h, 100 µM: 0.01

Compound: O=P(O)(O)CP(=O)(O)OC[C@H]1O[C@@H](n2ccc3c(-c4cc5ccccc5o4)nc(F)nc32)[C@H](O)[C@@H]1O [14D.8]
Inequality Symbol: =
fraction unbound at 4 h, 100 µM: 0.008

Compound: COc1nc(-c2ccc3ccccc3c2)c2ccn([C@@H]3O[C@H](COP(=O)(O)CP(=O)(O)O)[C@@H](O)[C@H]3O)c2n1 [21F.7]
Inequality Symbol: ≤
fraction unbound at 4 h, 100 µM: 0.01

Compound: O=P(O)(O)CP(=O)(O)OC[C@H]1O[C@@H](n2ccc3c(-c4ccc5c(c4)CCO5)ncnc32)[C@H](O)[C@@H]1O [4A.14]
Inequality Symbol: =
fraction unbound at 4 h, 100 µM: 0.062

Compound: O=P(O)(O)CP(=O)(O)OC[C@H]1O[C@@H](n2ccc3c(-c4ccnc5ccccc45)ncnc32)[C@H](O)[C@@H]1O [4A.17]
Inequality Symbol: =
fraction unbound at 4 h, 100 µM: 0.257

Compound: O=P(O)(O)CP(=O)(O)OC[C@H]1O[C@@H](n2ccc3c(-c4ccc5c(c4)CCCC5)nc(Cl)nc32)[C@H](O)[C@@H]1O [7B.23]
Inequality Symbol: ≤
fraction unbound at 4 h, 100 µM: 0.01

Compound: O=P(O)(O)CP(=O)(O)OC[C@H]1O[C@@H](n2ccc3c(-c4cc(Br)c5ccccc5c4F)nc(Cl)nc32)[C@H](O)[C@@H]1O [7B.26]
Inequality Symbol: ≤
fraction unbound at 4 h, 100 µM: 0.01

Compound: Nc1ccc(-c2nc(Cl)nc3c2ccn3[C@@H]2O[C@H](COP(=O)(O)CP(=O)(O)O)[C@@H](O)[C@H]2O)c2ccccc12 [7B.33]
Inequality Symbol: ≤
fraction unbound at 4 h, 100 µM: 0.01

Compound: O=P(O)(O)CP(=O)(O)OC[C@H]1O[C@@H](n2ccc3c(-c4ccncc4)ncnc32)[C@H](O)[C@@H]1O [4A.16]
Inequality Symbol: =
fraction unbound at 4 h, 100 µM: 0.304

Compound: Nc1nc(-c2ccco2)c2ccn([C@@H]3O[C@H](COP(=O)(O)CP(=O)(O)O)[C@@H](O)[C@H]3O)c2n1 [11C.1]
Inequality Symbol: =
fraction unbound at 4 h, 100 µM: 0.224

Compound: O=P(O)(O)CP(=O)(O)OC[C@H]1O[C@@H](n2ccc3c(-c4ccc5ccccc5c4)ncnc32)[C@H](O)[C@@H]1O [4A.7]
Inequality Symbol: =
fraction unbound at 4 h, 100 µM: 0.011

Compound: O=P(O)(O)CP(=O)(O)OC[C@H]1O[C@@H](n2ccc3c(-c4cccc5ccccc45)nc(Cl)nc32)[C@H](O)[C@@H]1O [7B.6]
Inequality Symbol: =
fraction unbound at 4 h, 100 µM: 0.034

Compound: O=P(O)(O)CP(=O)(O)OC[C@H]1O[C@@H](n2ccc3c(-c4ccc(F)c5ccccc45)nc(Cl)nc32)[C@H](O)[C@@H]1O [7B.28]
Inequality Symbol: ≤
fraction unbound at 4 h, 100 µM: 0.01

Compound: O=P(O)(O)CP(=O)(O)OC[C@H]1O[C@@H](n2ccc3c(-c4ccoc4)ncnc32)[C@H](O)[C@@H]1O [4A.2]
Inequality Symbol: =
fraction unbound at 4 h, 100 µM: 0.162

Compound: Cc1nc(-c2ccco2)c2ccn([C@@H]3O[C@H](COP(=O)(O)CP(=O)(O)O)[C@@H](O)[C@H]3O)c2n1 [18E.1]
Inequality Symbol: =
fraction unbound at 4 h, 100 µM: 0.069

Compound: O=P(O)(O)CP(=O)(O)OC[C@H]1O[C@@H](n2ccc3c(-c4ccc5ccccc5c4)nc(Cl)nc32)[C@H](O)[C@@H]1O [7B.7]
Inequality Symbol: =
fraction unbound at 4 h, 100 µM: 0.033

Compound: Cc1nc(-c2ccc3ccccc3c2)c2ccn([C@@H]3O[C@H](COP(=O)(O)CP(=O)(O)O)[C@@H](O)[C@H]3O)c2n1 [18E.7]
Inequality Symbol: =
fraction unbound at 4 h, 100 µM: 0.004
